- ASSAY_TEXT: n-octanol-water distribution coefficient, log KOW of the compound
- Format: physicochemical
- CONDITION_DESCRIPTION: read-out: log KOW
MEASUREMENT_LABEL: logP
Answers are plain numbers.

Given Cc1nn(C)c(Oc2ccccc2)c1/C=N/OCc1ccc(C(=O)OC(C)(C)C)cc1 [FENPYROXYMATE] , respond with its logP. 5.01
